test system: OleT; assay: Decarboxylation of FAs C22 to C4 employing the FDH-CamAB-OleT redox-cascade; assay type: biochemical; conditions: 25 °C, 24 h, 10 mM substrate
Entry flag: yes (1) if Conversion reaches 10%; no (0) if it does not.

Answered examples (5):
- smiles: "CCCCC(=O)O"
  assignedCategory: "no (0)"
- smiles: "CCCCCCCCCCCCCCCC(=O)O"
  assignedCategory: "yes (1)"
- smiles: "CCCCCCCCCC(=O)O"
  assignedCategory: "no (0)"
- smiles: "CCCCCCC(=O)O"
  assignedCategory: "yes (1)"
- smiles: "CCCCCCCCC(=O)O"
  assignedCategory: "yes (1)"

Please turn your attention to the following entry.
Query: Decide: is the reported value of Conversion for `CCCC(=O)O` equal to or greater than 10%?
Response: no (0)
